FYI, the data here is from paper PMC4601027.

- measurement_target: full-length Pin1 (UniProt Q13526 1-163)
- Sequence (Q13526 whole entry): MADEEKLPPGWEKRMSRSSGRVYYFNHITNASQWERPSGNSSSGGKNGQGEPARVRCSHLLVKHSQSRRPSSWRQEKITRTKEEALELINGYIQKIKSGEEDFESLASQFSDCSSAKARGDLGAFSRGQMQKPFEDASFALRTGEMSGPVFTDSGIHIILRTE
- assay_details: ITC
Non-standard residues stand in square brackets, D forms with d. No end group written: not given here. pS = N[C@@H](COP(=O)(O)O)C(=O)O
metric: Kd (µM)
Quick note: give the figure in µM, leave out the unit.

Ask: # get_value(readout='Kd', item= RI[pS]PPLPF-NH2 [CPEB1 pS210 peptide] )
Result: 32.3
